# Tested on: serum proteins
# ASSAY PROCEDURE: protein binding to serum proteins (Sephadex G-50 size-exclusion chromatography)
# Format: in vitro ADME
# TEST CONTEXT: fresh human serum, 37° C., 24 h, read-out: Percentage of radioligand bound to serum proteins after 24 h incubation (converted)
Where a SMILES comes first, the peptide text is derived from it. [ ]: non-standard residue; d: D form. The star is where a group is joined. DOTA = O=C(O)CN1CCN(CC(=O)O)CCN(CC(=O)*)CCN(CC(=O)O)CC1; 1Nal = N[C@@H](Cc1cccc2ccccc12)C(=O)O; NMeNle = CCCC[C@H](NC)C(=O)O
ENDPOINT: fraction unbound at 24 h, 500 pmol/mL
Form: value (number only, do not type unit).

Return reported fraction unbound at 24 h, 500 pmol/mL for target or system serum proteins, item CCCC[C@@H](C(=O)N[C@@H](CC(=O)O)C(=O)N[C@@H](Cc1cccc2ccccc12)C(N)=O)N(C)C(=O)[C@H](Cc1c[nH]c2ccccc12)NC(=O)CNC(=O)[C@H](Cc1ccc(O)cc1)NC(=O)[C@H](C)NC(=O)[C@@H](CCCCN)NC(=O)CN1CCN(CC(=O)O)CCN(CC(=O)O)CCN(CC(=O)O)CC1 [^111In-DOTA-MGS9, metal not drawn] ({DOTA}-[dK]AYGW[NMeNle]D[1Nal]-NH2) .
0.722

* * *

# ASSAY PROCEDURE: biodistribution: uptake in normal tissues
# Format: in vivo, athymic BALB/c nude mice
# TEST CONTEXT: female, athymic BALB/c nude, mouse, blood, lung and heart, iv, total radioactivity; 1 or 4 h p.i.; read-out: unspecific tissue uptake in blood, lung and heart
ENDPOINT: tissue uptake

For the compound CCCC[C@@H](C(=O)N[C@@H](CC(=O)O)C(=O)N[C@@H](Cc1cccc2ccccc12)C(N)=O)N(C)C(=O)[C@H](Cc1c[nH]c2ccccc12)NC(=O)CNC(=O)[C@H](Cc1ccc(O)cc1)NC(=O)[C@H](C)NC(=O)[C@@H](CCC(=O)O)NC(=O)CN1CCN(CC(=O)O)CCN(CC(=O)O)CCN(CC(=O)O)CC1 [^68Ga-DOTA-MGS5, metal not drawn] , give its reported tissue uptake.
1 to 2 %ID/g

* * *

# ASSAY PROCEDURE: biodistribution: uptake in normal tissues
# Type: in vivo, athymic BALB/c nude mice
# TEST CONTEXT: female, athymic BALB/c nude, mouse, intestine and liver, iv, 0.02 nmol peptidomimetic, total radioactivity; 4 h p.i.
Where a SMILES comes first, the peptide text is derived from it. [ ]: non-standard residue; d: D form. The star is where a group is joined. DOTA = O=C(O)CN1CCN(CC(=O)O)CCN(CC(=O)*)CCN(CC(=O)O)CC1; 1Nal = N[C@@H](Cc1cccc2ccccc12)C(=O)O; NMeNle = CCCC[C@H](NC)C(=O)O
ENDPOINT: tissue uptake at 4 h

For the compound CCCC[C@@H](C(=O)N[C@@H](CC(=O)O)C(=O)N[C@@H](Cc1cccc2ccccc12)C(N)=O)N(C)C(=O)[C@H](Cc1c[nH]c2ccccc12)NC(=O)CNC(=O)[C@H](Cc1ccc(O)cc1)NC(=O)[C@H](C)NC(=O)[C@@H](CCCCN)NC(=O)CN1CCN(CC(=O)O)CCN(CC(=O)O)CCN(CC(=O)O)CC1 [^111In-DOTA-MGS9, metal not drawn] ({DOTA}-[dK]AYGW[NMeNle]D[1Nal]-NH2) , give its reported tissue uptake at 4 h.
~2 %ID/g

* * *

# ASSAY PROCEDURE: biodistribution: uptake in normal tissues
# Assay type: in vivo, athymic BALB/c nude mice
# TEST CONTEXT: female, athymic BALB/c nude, mouse, kidneys, iv, total radioactivity; 1 or 4 h p.i. (111In-labelled series: 4 h p.i.); read-out: kidney uptake
Where a SMILES comes first, the peptide text is derived from it. [ ]: non-standard residue; d: D form. The star is where a group is joined. DOTA = O=C(O)CN1CCN(CC(=O)O)CCN(CC(=O)*)CCN(CC(=O)O)CC1; 1Nal = N[C@@H](Cc1cccc2ccccc12)C(=O)O; NMeNle = CCCC[C@H](NC)C(=O)O
ENDPOINT: tissue uptake (%ID/g)
Please give a number only; it is taken to be in %ID/g.

For the compound CCCC[C@@H](C(=O)N[C@@H](CC(=O)O)C(=O)N[C@@H](Cc1cccc2ccccc12)C(N)=O)N(C)C(=O)[C@H](Cc1c[nH]c2ccccc12)NC(=O)CNC(=O)[C@H](Cc1ccc(O)cc1)NC(=O)[C@H](C)NC(=O)[C@@H](CCCCN)NC(=O)CN1CCN(CC(=O)O)CCN(CC(=O)O)CCN(CC(=O)O)CC1 [^111In-DOTA-MGS9, metal not drawn] ({DOTA}-[dK]AYGW[NMeNle]D[1Nal]-NH2) , give its reported tissue uptake.
20.7

* * *

# ASSAY PROCEDURE: stability in vivo (radio-HPLC of blood sample)
# TEST CONTEXT: BALB/c mice, i.v., 10 min p.i.
Where a SMILES comes first, the peptide text is derived from it. [ ]: non-standard residue; d: D form. The star is where a group is joined. DOTA = O=C(O)CN1CCN(CC(=O)O)CCN(CC(=O)*)CCN(CC(=O)O)CC1; 1Nal = N[C@@H](Cc1cccc2ccccc12)C(=O)O; NMeNle = CCCC[C@H](NC)C(=O)O
ENDPOINT: intact radioligand present in the blood at 10 min p.i. (%)
Please give a number only; it is taken to be in %.

- MOLECULE: "CCCC[C@@H](C(=O)N[C@@H](CC(=O)O)C(=O)N[C@@H](Cc1cccc2ccccc12)C(N)=O)N(C)C(=O)[C@H](Cc1c[nH]c2ccccc12)NC(=O)CNC(=O)[C@@H]1CCCN1C(=O)[C@H](Cc1ccc(O)cc1)NC(=O)[C@@H](CCC(=O)O)NC(=O)CN1CCN(CC(=O)O)CCN(CC(=O)O)CCN(CC(=O)O)CC1 [^111In-DOTA-MGS10, metal not drawn] ({DOTA}-[dE]YPGW[NMeNle]D[1Nal]-NH2)"
  VALUE REPORTED: 82.3
- MOLECULE: "CCCC[C@@H](C(=O)N[C@@H](CC(=O)O)C(=O)N[C@@H](Cc1cccc2ccccc12)C(N)=O)N(C)C(=O)[C@H](Cc1c[nH]c2ccccc12)NC(=O)CNC(=O)[C@H](Cc1ccc(O)cc1)NC(=O)[C@@H]1CCCN1C(=O)[C@@H](CCC(=O)O)NC(=O)CN1CCN(CC(=O)O)CCN(CC(=O)O)CCN(CC(=O)O)CC1 [^111In-DOTA-MGS8, metal not drawn] ({DOTA}-[dE]PYGW[NMeNle]D[1Nal]-NH2)"
  VALUE REPORTED: 80.0
- MOLECULE: "CCCC[C@@H](C(=O)N[C@@H](CC(=O)O)C(=O)N[C@@H](Cc1cccc2ccccc12)C(N)=O)N(C)C(=O)[C@H](Cc1c[nH]c2ccccc12)NC(=O)CNC(=O)[C@H](Cc1ccc(O)cc1)NC(=O)[C@H](C)NC(=O)[C@@H](CCC(=O)O)NC(=O)CN1CCN(CC(=O)O)CCN(CC(=O)O)CCN(CC(=O)O)CC1 [^177Lu-DOTA-MGS5, metal not drawn]"
  VALUE REPORTED: 85.9

For the molecule CCCC[C@@H](C(=O)N[C@@H](CC(=O)O)C(=O)N[C@@H](Cc1cccc2ccccc12)C(N)=O)N(C)C(=O)[C@H](Cc1c[nH]c2ccccc12)NC(=O)CNC(=O)[C@H](Cc1ccc(O)cc1)NC(=O)[C@H](C)NC(=O)[C@@H](CCCCN)NC(=O)CN1CCN(CC(=O)O)CCN(CC(=O)O)CCN(CC(=O)O)CC1 [^111In-DOTA-MGS9, metal not drawn] ({DOTA}-[dK]AYGW[NMeNle]D[1Nal]-NH2) , give its reported intact radioligand present in the blood at 10 min p.i..
93.9

For the molecule CCCC[C@H](NC(=O)[C@H](Cc1c[nH]c2ccccc12)NC(=O)CNC(=O)[C@H](Cc1ccc(O)cc1)NC(=O)[C@H](C)NC(=O)[C@@H](CCC(=O)O)NC(=O)[C@@H](CCC(=O)O)NC(=O)[C@@H](CCC(=O)O)NC(=O)[C@@H](CCC(=O)O)NC(=O)[C@@H](CCC(=O)O)NC(=O)[C@@H](CCC(=O)O)NC(=O)CN1CCN(CC(=O)O)CCN(CC(=O)O)CCN(CC(=O)O)CC1)C(=O)N[C@@H](CC(=O)O)C(=O)N[C@@H](Cc1ccccc1)C(N)=O [^177Lu-PP-F11N, metal not drawn, reference compound] , give its reported intact radioligand present in the blood at 10 min p.i..
22.3

For the molecule CCCC[C@@H](C(=O)N[C@@H](CC(=O)O)C(=O)N[C@@H](Cc1ccc2ccccc2c1)C(N)=O)N(C)C(=O)[C@H](Cc1c[nH]c2ccccc12)NC(=O)CNC(=O)[C@H](Cc1ccc(O)cc1)NC(=O)[C@H](C)NC(=O)[C@@H](CCC(=O)O)NC(=O)CN1CCN(CC(=O)O)CCN(CC(=O)O)CCN(CC(=O)O)CC1 [^111In-DOTA-MGS5-2, metal not drawn] , give its reported intact radioligand present in the blood at 10 min p.i..
88.4
